Values from PubChem BioAssay

assay: COS7 lysate on small-molecule microarray, probe aHis, 635 nm (AID 1123); conditions: COS7 cell lysate, fluorescence, higher = more signal;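 further: z-score combines 667nm fluorescence intensity with signal-to-noise per printed compound spot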
measured-metric: composite z-score
Please reply with the value in numeric form only.

Some solved entries appear below for comparison.
compound	composite z-score
C=CCOC(=O)[C@@H]1[C@H]2C(=O)O[C@H](c3ccccc3)[C@H](c3ccccc3)N2[C@H](c2ccc(OCCOC(=O)[C@@H]3C[C@@H]4C(=O)N[C@@H](CCCC[N+](C)(C)C)C(=O)N4[C@@H]3c3ccc(O)cc3)cc2)[C@@]12C(=O)Nc1ccc(I)cc12	1.92
C=CCC(OC(C)=O)[C@@H]1[C@@H](N(Cc2ccc(-c3cccc(C(F)(F)F)c3)o2)C(=O)c2ccc(-c3ccccc3)cc2)c2cc(OCCCO)ccc2N1C(=O)Cc1ccc2ccccc2c1 (some centres not stated)	0.453
NC(=O)[C@H]1[C@@H]2C(=O)O[C@@H](c3ccccc3)[C@@H](c3ccccc3)N2[C@@H](c2ccc(OCCO)cc2)[C@]12C(=O)Nc1ccc(C#CCCO)cc12	1.26
N#Cc1ccc(NN2C(C(O)c3ccc(Br)cc3)C=CC3C(=O)N(c4ccccc4)C(=O)C32)cc1 (configuration not stated)	3.24

**Query** Recorded composite z-score for CCC1=C2CN(Cc3ccccc3)[C@@H](C(=O)Cc3ccccc3)C2C=CCC1 (some centres not stated) , please?
**Result** 1.58

**Query** Try COc1cc2c(cc1O)C(c1ccc(CN3CCCC3)cc1)N(Cc1cc3c(cc1Br)OCO3)CC2 (configuration not stated) next.
**Result** 0.796

**Query** Try NCCCCCCNC(=O)[C@@H]1C[C@@H]2C(=O)N[C@@H](CCCCN)C(=O)N2[C@@H]1c1ccc(O)cc1 next.
**Result** 1.68

====

test: probe aXIP binding to arrayed compounds – biochemical, NeuroSMM set, 635/667 nm fluorescence, primary screen (AID 1119); settings: small-molecule microarray, higher = more signal, called active from +8 up or from −8 down;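 further: probe is the protein aXip251-270 applied at 1 µg/mL to compound-printed slides; binding of probe to printed compounds measured as 667 nm fluorescence plus signal to noise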
Each entry gets not met if its composite Z-score stays under 0.09, and met if its composite Z-score is 0.09 or above.

Study these solved cases before continuing.
> print(dat)
                                   compound  classification
1  CCCCCN1CC=CC23O[C@@H]4C=CCCOC(=O)C4[C@H]2C(=O)N(CCCCCCO)[C@@H]3C1=O (stereo partly drawn)             met
2  COc1ccc([Si](C)(C)[C@H]2[C@H](CC(=O)N3CCC[C@H]3CO)O[C@@]3(C(=O)N(Cc4ccc(N5CCOC5=O)cc4)c4ccccc43)[C@@H]2C)cc1         not met
3  CCCNC(=O)[C@@]1(Sc2ccc(C)cc2)CC(=O)N(C2Cc3ccccc3C2)[C@@H]1c1ccc(CO)cc1I         not met
4  CCCC#C[Si](O[C@H](CC)c1cn([C@H](C)c2ccccc2)nn1)(C(C)C)C(C)C             met
5  COCC(=C=CC[C@H](O)c1ccccc1OCCO)C[C@H](O)c1ccccn1             met
6  O=C1OCCC/C=C\[C@H]2OC34C=CCN(c5ccc6ccccc6c5)C(=O)[C@H]3N(CCO)C(=O)[C@@H]4C12 (stereo partly drawn)             met

Alright, here's another compound for you.
**Query** Identify whether the reported composite Z-score of the following compound is 0.09 or greater: CCCCCC1=C2CNC(C)(C(=O)OC)C=C2C(C)C1=O (stereo not drawn)
**Result** met

====

// reported z-score per item
test: growth of efflux-deficient E. coli DRC39 – strain DRC39, OD650, 24 h, E. coli filamentation inducers, primary screen (AID 1178);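 further: growth measured as culture turbidity by optical density at 650 nm; test concentration not given here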; settings: E. coli DRC39 acrAB, higher = more signal, called active from +8 up or from −8 down
Please reply with the value in numeric form only.

Some solved entries appear below for comparison.
compound	measured-metric	numeric-value
COC(=O)[C@]1(CCS(=O)(=O)c2ccccc2)N=C(c2ccc(OCCCO)cc2)O[C@@H]1c1ccccc1N=[N+]=[N-]	z-score	0.548
CCCC1(C(=O)OC)C=C2C(=C(C)C(=O)C2C)CN1 (stereo not drawn)	z-score	-0.715

Please turn your attention to the following entry.
**Query** Recorded z-score for C=CCOC(=O)[C@@H]1[C@H]2C(=O)O[C@H](c3ccccc3)[C@H](c3ccccc3)N2[C@H](c2ccc(OCCOC(=O)[C@@H]3C[C@@H]4C(=O)N[C@@H](CCCC[N+](C)(C)C)C(=O)N4[C@@H]3c3ccc(O)cc3)cc2)[C@@]12C(=O)Nc1ccc(I)cc12 , please?
**Result** -0.507

====

experiment: probe aShh binding to arrayed compounds – biochemical, biotinylated probe, 635/667 nm fluorescence, primary screen (AID 1114); conditions: small-molecule microarray, higher = more signal;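 further: probe is biotin-labelled aShh protein from a stem cell growth factor screen; measures binding of labelled protein to compounds printed on the slide; score merges feature fluorescence at 667 nm with signal-to-noise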
measured-metric: composite z-score
Please reply with the value in numeric form only.

**Query** Recorded composite z-score for CCCN1C(=O)[C@]2(Cc3ccccc31)N=C(c1ccc(OCCCO)cc1)O[C@@H]2c1ccccc1 , please?
**Result** 1.17

**Query** Try CCCCC=C[C@@H](NC(=O)OCc1ccccc1Cl)c1ccccc1 next.
**Result** 1.97

**Query** Try CCOC(=O)C[C@H]1[C@H](OC(=O)c2ccccc2-c2ccccc2)[C@@H](NC(=O)c2ccc3ccccc3n2)c2cc(OCCCO)ccc2N1C(=O)Cc1ccc(OC)cc1 next.
**Result** -0.182

**Query** Try COC(=O)[C@@]1(Cc2ccc(F)cc2)[C@H]2c3cc(C(=O)N(C)C)n(Cc4ccc(OC(F)(F)F)cc4)c3C[C@H]2CN1C(=O)c1ccccc1 next.
**Result** 0.442

====

experiment: compound effects on hepatocellular carcinoma cell viability – HepG2, calcein-AM fluorescence, 48 h, basal, profiling panel (AID 1164); details: higher = more signal; further: test concentration not given here
measured-metric: z-score
Please reply with the value in numeric form only.

compound	measured-metric	numeric-value
COCCOC(=O)N1C(=O)[C@@]2(c3cc(C#CC4(O)CCCCCC4)ccc31)[C@H](C(=O)Nc1nc3ccccc3s1)[C@H]1C(=O)O[C@H](c3ccccc3)[C@H](c3ccccc3)N1[C@@H]2c1ccc(O)cc1	z-score	0.74

**Query** Recorded z-score for N[C@@H](Cc1ccccc1)C(=O)NCc1cn(Cc2ccccc2)nn1 , please?
**Result** -0.256

**Query** Try C=CCN1C(=O)[C@]2(CCS(=O)(=O)c3ccccc3)N=C(c3ccc(OCCCO)cc3)O[C@@H]2c2ccccc21 next.
**Result** 0.504

====

experiment: change in splice reporter luminescence, either direction, cell-based, HEK293, spliceosome inhibition project, primary screen (AID 1101); details: HEK293 splicing luciferase reporter, 24 h, higher = more signal, called active from +8 up or from −8 down;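 further: HEK293 cells carrying a splicing-competent luciferase reporter gene; test concentration not given here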
Each entry gets NO if its z-score stays under -0.8, and YES if its z-score is -0.8 or above.

Study these solved cases before continuing.
compound	classification
C=CCNC(=O)[C@@H]1[C@H]2C(=O)O[C@H](c3ccccc3)[C@H](c3ccccc3)N2[C@H](c2ccc(OCCO)cc2)[C@@]12C(=O)N(C(=O)OCCOC)c1ccc(C#Cc3ccc(OC)cc3)cc12	NO
COc1ccc([Si](C)(C)[C@@H]2[C@@H](CC(=O)N(CCO)Cc3ccccc3)O[C@]3(C(=O)N(Cc4cccc(N5CCCCC5=O)c4)c4ccccc43)[C@H]2C)cc1	YES
COC(=O)[C@@]1(Cc2ccc(F)cc2)[C@H]2c3cc(C(=O)N4CCCC4)n(Cc4ccc(C)c(F)c4F)c3C[C@H]2CN1C(=O)c1ccccc1	NO
COc1cc2c(cc1O)C(c1cccs1)N(Cc1cc3c(cc1Br)OCO3)CC2 (configuration not stated)	YES
COC(=O)[C@@]1(Cc2ccc(OC)cc2)[C@H]2c3cc(C(=O)N4CCCC4)n(CCc4c[nH]c5ccc(OC)cc45)c3C[C@H]2CN1C(=O)c1ccccc1	NO

**Query** Identify whether the reported z-score of the following compound is -0.8 or greater: CC[C@@H]1O[Si](C(C)C)(C(C)C)c2c1cc(-c1cc(C)c(OC)c(C)c1)nc2-c1ccc(Oc2ccccc2)cc1
**Result** YES

**Query** Try Cc1ccc(S[C@]2(C(=O)NCCN3CCOCC3)CC(=O)N(Cc3ccccc3Cl)[C@@H]2c2ccc(CO)cc2I)cc1 next.
**Result** NO

====

assay: viability profiling in MM1S myeloma cells – cell-based, resazurin fluorescence, basal, 24 h, PK04 Diversity Set, profiling panel (AID 1174); settings: higher = more signal, called active from +8 up or from −8 down;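 further: MM1S multiple myeloma cell line; test concentration not given here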
measured-metric: z-score
Please reply with the value in numeric form only.

Some solved entries appear below for comparison.
compound	z-score
COC(=O)[C@@]1(Cc2ccccc2)[C@H]2c3cc(C(=O)N4CCCC4)n(CCc4ccccn4)c3C[C@H]2CN1C(=O)c1ccccc1	-0.454
CS(=O)(=O)CCOC(=O)C1=CC(c2ccc(CO)cc2)=CC(C2CC2)N(Cc2sc3ccccc3c2Cl)C=C1C(=O)OCCS(C)(=O)=O (centres undefined)	-2.63
COCCCNC(=O)[C@@H]1c2ccccc2C(=O)N(C(C)C)[C@H]1c1ccc(CO)cc1	0.054
COCCOC(=O)N1C(=O)[C@@]2(c3cc(C#CC4=CCCCC4)ccc31)[C@H](c1ccccc1OCCO)N1[C@H](c3ccccc3)[C@H](c3ccccc3)OC(=O)[C@H]1[C@@H]2C(=O)NC[C@H](O)c1ccccc1	-2.19
CC(=O)NCCCC[C@@H]1NC(=O)[C@@H]2C[C@H](C(=O)NCCCCCN)[C@H](c3cccc(OCCO)c3)N2C1=O	0.427

Please turn your attention to the following entry.
**Query** Recorded z-score for C=CCOC(=O)[C@@]1(Cc2ccccc2)C[C@H]2CO[C@H](c3ccc(OC)cc3)N2C1=O , please?
**Result** 0.437
